The origin of these recorded values is paper PMC8893300.

TEST TARGET: human sweet taste receptor (hT1R2/hT1R3) (Homo sapiens, UniProt Q7RTX0+Q8TE23)
Construct: expressed in transfected cells
Sequence (Q8TE23 20-839): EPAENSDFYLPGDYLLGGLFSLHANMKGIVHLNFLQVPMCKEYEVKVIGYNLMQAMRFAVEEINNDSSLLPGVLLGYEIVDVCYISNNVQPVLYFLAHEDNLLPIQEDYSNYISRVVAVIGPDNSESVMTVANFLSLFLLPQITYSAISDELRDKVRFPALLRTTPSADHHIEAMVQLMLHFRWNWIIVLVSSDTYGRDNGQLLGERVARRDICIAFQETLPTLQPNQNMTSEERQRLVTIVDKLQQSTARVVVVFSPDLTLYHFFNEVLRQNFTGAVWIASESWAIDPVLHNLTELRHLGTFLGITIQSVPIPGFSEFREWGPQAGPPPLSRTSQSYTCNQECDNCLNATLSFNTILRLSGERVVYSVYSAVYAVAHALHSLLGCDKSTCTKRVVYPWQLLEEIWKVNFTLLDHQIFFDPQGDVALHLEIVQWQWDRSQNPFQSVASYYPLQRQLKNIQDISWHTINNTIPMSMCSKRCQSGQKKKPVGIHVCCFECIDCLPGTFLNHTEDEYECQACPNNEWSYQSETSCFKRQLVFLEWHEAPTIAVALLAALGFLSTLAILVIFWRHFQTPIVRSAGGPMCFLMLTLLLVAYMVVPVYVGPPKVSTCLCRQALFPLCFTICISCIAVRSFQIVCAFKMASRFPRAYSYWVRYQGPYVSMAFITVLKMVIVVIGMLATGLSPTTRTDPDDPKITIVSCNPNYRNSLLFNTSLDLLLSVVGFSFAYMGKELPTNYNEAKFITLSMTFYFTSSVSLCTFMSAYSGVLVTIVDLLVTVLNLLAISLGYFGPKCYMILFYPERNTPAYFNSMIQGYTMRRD
Sequence (Q7RTX0 21-852): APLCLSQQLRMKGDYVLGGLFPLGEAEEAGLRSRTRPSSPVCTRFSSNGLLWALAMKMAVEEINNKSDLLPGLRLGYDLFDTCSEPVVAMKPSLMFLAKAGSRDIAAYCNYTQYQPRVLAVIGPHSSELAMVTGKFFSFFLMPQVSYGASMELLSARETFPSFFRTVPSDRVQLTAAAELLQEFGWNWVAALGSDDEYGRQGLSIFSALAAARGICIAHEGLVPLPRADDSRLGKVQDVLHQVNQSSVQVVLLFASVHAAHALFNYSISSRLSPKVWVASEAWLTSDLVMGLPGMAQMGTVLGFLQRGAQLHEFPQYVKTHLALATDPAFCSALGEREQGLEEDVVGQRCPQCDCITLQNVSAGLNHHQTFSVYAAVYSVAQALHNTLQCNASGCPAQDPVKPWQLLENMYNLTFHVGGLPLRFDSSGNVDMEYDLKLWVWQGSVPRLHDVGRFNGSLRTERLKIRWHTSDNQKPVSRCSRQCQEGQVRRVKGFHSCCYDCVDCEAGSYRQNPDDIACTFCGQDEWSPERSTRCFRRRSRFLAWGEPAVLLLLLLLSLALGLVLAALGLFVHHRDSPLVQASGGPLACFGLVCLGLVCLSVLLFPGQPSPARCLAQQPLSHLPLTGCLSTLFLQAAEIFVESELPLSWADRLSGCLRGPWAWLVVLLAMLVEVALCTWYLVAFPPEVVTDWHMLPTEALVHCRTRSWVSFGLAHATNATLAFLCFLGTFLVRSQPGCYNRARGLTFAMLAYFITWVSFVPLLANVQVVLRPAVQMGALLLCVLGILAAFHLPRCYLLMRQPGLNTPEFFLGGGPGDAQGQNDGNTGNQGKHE
TEST METHOD NOTES: DMR assay (Epic reader) on R2/R3 U2OS cells, endogenous G proteins
Format: cell-based
APPLIED CONDITIONS: R2/R3 U2OS cells, peak DMR response; read-out: Activity in DMR assay pEC50 (converted)
Experimental: The plates were incubated in the tissue culture hood for 20 min to allow cells to settle evenly at the bottom of the microplate and further cultured at 37°C in an atmosphere of 5% CO2 for 18–24 h. […] This value, that we termed pEC50Ratio (sucralose) or pEC50R (sucralose), was calculated with EC50 values obtained in the two assay systems. […] The two sets of data (DMR and FLIPR data) were then analyzed with an un-paired t-test (α = 0.05). […]
EXPERIMENTAL READOUT: EC50 (µM)

[[record]]
compound = "COC(=O)[C@H](Cc1ccccc1)NC(=O)[C@H](CC(=O)O)NC(=O)Nc1ccc(C#N)cc1"
unit_descriptor = "µM"
numeric_result = 9.48

[[record]]
compound = "OC[C@H]1O[C@H](O[C@]2(CCl)O[C@H](CCl)[C@@H](O)[C@@H]2O)[C@H](O)[C@@H](O)[C@H]1Cl"
unit_descriptor = "µM"
numeric_result = 150

[[record]]
compound = "C=C1C[C@@]23CC[C@H]4[C@@](C)(CCC[C@@]4(C)C(=O)O[C@@H]4O[C@H](CO)[C@@H](O)[C@H](O)[C@H]4O)[C@@H]2CC[C@]1(O[C@@H]1O[C@H](CO)[C@@H](O)[C@H](O)[C@H]1O[C@@H]1O[C@H](CO)[C@@H](O)[C@H](O)[C@H]1O)C3 [Stevioside]"
unit_descriptor = "µM"
numeric_result = 114

[[record]]
compound = "Cc1cc(C)c2c(c1)[C@H](NC(=O)c1conc1C)CCC2"
unit_descriptor = "µM"
numeric_result = 1.22

[[record]]
compound = "COCc1cncc(-c2ccc(C(C)(C)C(=O)NCC(C)C)cc2)n1"
unit_descriptor = "µM"
numeric_result = 1.51


a = CC(C)Oc1ccc(NC(=S)NCc2ccc[nH]2)cc1
b = COC(=O)[C@H](Cc1ccccc1)NC(=O)[C@H](CC(=O)O)NCCC(C)(C)C
Qu. Sorting by EC50 in descending order, would a or b appear first? Provide the label of your selected option as the answer.
Ans. b
(b: 7.29 µM, a: 0.637 µM)
